Each recorded value in this set is attributed to PubChem BioAssay (NCI).

# Tested on: SNB-75 CNS
# procedure text: NCI-60 one-dose screen, 48 h (100 = growth as untreated, 0 = no growth, -100 = all killed)
# measurement context: 10 µM unless noted
Compounds without any hit were thinned out: in the full panel of roughly 83,000, 20% have a hit. The source made the active and inactive calls. Rule for the calls: active = growth percent below 10; inactive = the rest.
Give growth for every item shown.

As a guide, the following entries are already answered.
molecule: N#Cc1c(N)nc2c(c(-c3ccc(Cl)cc3)nn2-c2ccccc2)c1C#N
system name: SNB-75 CNS
growth: 104% [100 µM] (inactive)
//
molecule: Cn1c(-c2ccccc2)cc(=O)cc1-c1ccccc1
system name: SNB-75 CNS
growth: 119% (inactive)
//
molecule: CC(=O)/C(N=Nc1ccc(S(=O)(=O)c2ccc(N=N/C(C(C)=O)=C(/C)O)cc2)cc1)=C(\C)O
system name: SNB-75 CNS
growth: 97.7% (inactive)

Please state, for each entry, its recorded growth.
1. C/C=C/C(=O)OCCCCCCCCCCCC
2. OCCS
3. CC1CC(O)CC(C)(C)C1.CC1CC(O)CC(C)(C)C1.CC1CC(O)CC(C)(C)C1.CC1CC(O)CC(C)(C)C1.[Ti] (stereo unspecified)

Marked response:
["101% (inactive)", "91.1% (inactive)", "113% (inactive)"]

* * *

Please respond with reported growth for every item in the list.
# Tested on: OVCAR-8 ovarian
# procedure text: NCI-60 one-dose screen, 48 h (100 = growth as untreated, 0 = no growth, -100 = all killed)
# measurement context: 10 µM unless noted
Compounds without any hit were thinned out: in the full panel of roughly 83,000, 20% have a hit. Calls of active or inactive are those of the source. Rule for the calls: active = growth percent below 10; inactive = the rest.

Previously resolved entries follow.
compound: O=C(N=C1C(=O)C2(CCCCC2)C2(N=C(c3ccccc3)OC2=O)C12CCCCC2)c1ccccc1 (stereo not drawn)
growth: 75.4% (inactive)
--
compound: Clc1ccc2sc(-c3ccccc3)nc2c1
growth: 87.9% (inactive)
--
compound: CCOc1ccc(/C=C\C(=O)O)cc1
growth: 98.7% (inactive)

Would you be so kind as to report growth for each listed record?
1. O=P(O)(O)OC1C(OP(=O)(O)O)C(OP(=O)(O)O)C(OP(=O)(O)O)C(OP(=O)(O)O)C1OP(=O)(O)O.[Cu+2] (stereo not drawn)
2. CNc1ccc(Cl)cc1S(=O)(=O)c1ccccc1[N+](=O)[O-]
3. CC1CCC(=O)N1c1ccc(N)cc1 (stereo not drawn)
4. CCNC1=CC(=O)c2ncccc2C1=O
5. N#Cc1c(N)nc2c(c(-c3ccc(Cl)cc3)nn2-c2ccccc2)c1C#N
6. CC1CC(O)CC(C)(C)C1.CC1CC(O)CC(C)(C)C1.CC1CC(O)CC(C)(C)C1.CC1CC(O)CC(C)(C)C1.[Ti] (stereo not drawn)
7. COCCNC(C)=O

Marked response:
76.8% (inactive)
105% (inactive)
100% (inactive)
51.9% (inactive)
99.8% [100 µM] (inactive)
106% (inactive)
114% (inactive)

* * *

# Tested on: PC-3 prostate
# procedure text: NCI-60 one-dose screen, 48 h (100 = growth as untreated, 0 = no growth, -100 = all killed)
# measurement context: 10 µM unless noted
This is part of a sample that, as a whole, favours compounds with a hit. Of some 83,000 tested, about 20% had one in any assay.
Consider the following compounds; for each one, report its growth.
Give bare numbers, in %.

Worked set:
compound: COCCCNC1=C(C#N)C(=O)NC(c2cccs2)S1 (stereo unspecified)
system name: PC-3 prostate
property name: growth
experimental value: 100

compound: Nc1ccccc1SC1CC(=O)N(c2ccc(I)cc2)C1=O (stereo unspecified)
system name: PC-3 prostate
property name: growth
experimental value: 94.2

compound: Cc1ccc([N+](=O)[O-])cc1Br
system name: PC-3 prostate
property name: growth
experimental value: 94.8

compound: CCC/C(=N/NC(N)=O)c1ccco1
system name: PC-3 prostate
property name: growth
experimental value: 86.8

compound: Cc1cnc(N)s1
system name: PC-3 prostate
property name: growth
experimental value: 88.9

Answer for every listed entry: what is its growth? The entries follow.
1. CCNCc1ccccc1
2. COC(=O)C(Cc1cn(C(C)=O)c2ccccc12)P(=O)(OC)OC (stereo unspecified)
3. O=C(O)c1ccc2c3ccc(C(=O)O)c4c(C(=O)O)ccc(c5ccc(C(=O)O)c1c25)c43
4. COC(=O)c1ccccc1Cl

Marked response:
103
88.6
101
96.9
